Biological target: Muscarinic acetylcholine receptor M2 (Homo sapiens, UniProt P08172)
Sequence (P08172 whole entry): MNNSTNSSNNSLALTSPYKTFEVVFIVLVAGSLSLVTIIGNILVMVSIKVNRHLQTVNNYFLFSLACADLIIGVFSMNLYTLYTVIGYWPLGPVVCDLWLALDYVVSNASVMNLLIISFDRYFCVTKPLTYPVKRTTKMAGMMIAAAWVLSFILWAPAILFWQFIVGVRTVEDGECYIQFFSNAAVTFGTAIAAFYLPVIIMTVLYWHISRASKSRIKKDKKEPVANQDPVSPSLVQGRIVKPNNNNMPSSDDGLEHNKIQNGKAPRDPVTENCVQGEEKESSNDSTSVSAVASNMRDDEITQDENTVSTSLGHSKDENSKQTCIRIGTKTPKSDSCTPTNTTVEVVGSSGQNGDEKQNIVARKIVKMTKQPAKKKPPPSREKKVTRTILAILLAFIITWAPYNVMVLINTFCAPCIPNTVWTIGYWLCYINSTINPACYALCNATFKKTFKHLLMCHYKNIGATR
reported-metric: pKi
Please express pKi as -log10 of the molar concentration.

[ask] Give the reported pKi for this compound. O=C(c1ccccc1)N(Cc1ccccc1)C1CCN(Cc2ccccc2)CC1
[reply] 6.20
